Here the recorded composite z-score is given for each entry.
Biological target: Follistatin (Homo sapiens)
Test: follistatin binders on small-molecule microarrays, primary screen, biochemical, small-molecule microarray, 635/667 nm fluorescence (AID 1132)
Settings: FST binding, 635 nm fluorescence, higher = more signal
// return a plain number; no unit text

These solved cases illustrate the format of a correct answer.
1) CCCC[C@H]1OB(O)C[C@H]2C1=C(C)C[C@H]1C(=O)C=CC(=O)[C@H]12 = 0.828
2) O=C1OCCC=C[C@H]2OC34C=CCN(c5ccc(Cl)cc5)C(=O)[C@H]3N(CCO)C(=O)[C@@H]4C12 (some centres undefined) = -0.367
3) COCCOC(=O)N1C(=O)[C@@]2(c3cc(C#CC4(O)CCCCCC4)ccc31)[C@H](c1ccccc1OCCO)N1[C@H](c3ccccc3)[C@H](c3ccccc3)OC(=O)[C@H]1[C@@H]2C(=O)N1CCCCCCC1 = 1.45
4) CCOC(=O)C[C@H]1[C@H](OC(=O)c2ccc(-c3ccccc3)cc2)[C@@H](NC(=O)c2ccc3ccccc3c2)c2cc(OCCCO)ccc2N1C(=O)c1ccccc1 = 0.0533
5) CCCC=C(CCC)[C@@H](NS(=O)(=O)c1ccc(Cl)cc1)c1ccccc1 = -0.883
6) C[N+](C)(C)CCCCCCNC(=O)[C@H]1C[C@H]2C(=O)NCC(=O)N2[C@H]1c1cccc(OCCO)c1 = 1.13

compound "COCCOC(=O)N1C(=O)[C@@]2(c3cc(C#CC4=CCCCC4)ccc31)[C@H](c1ccccc1OCCO)N1[C@H](c3ccccc3)[C@H](c3ccccc3)OC(=O)[C@H]1[C@@H]2C(N)=O" , composite z-score observed: 1.06

Looking up "COCCCNC(=O)[C@@]1(Sc2ccc(C)cc2)CC(=O)N(C2CCCCC2)[C@@H]1c1ccc(CO)cc1I" , I found its composite z-score recorded as 1.09

For reference, reported composite z-score for "CC(C)CNC(=O)[C@@H]1c2ccccc2C(=O)N(C2Cc3ccccc3C2)[C@H]1c1ccc(CO)cc1" stands at 0.348

According to the records, this compound "NC(=O)NCC#Cc1ccc2c(c1)[C@]1(C(=O)N2)[C@H](C(=O)N2CCCCCCC2)[C@H]2C(=O)O[C@H](c3ccccc3)[C@H](c3ccccc3)N2[C@@H]1c1ccc(O)cc1" displays composite z-score of 1.52

The compound "[N-]=[N+]=NCc1ccccc1[C@@H]1OC(c2ccc(OCCCO)cc2)=N[C@]1(Cc1ccccc1)C(=O)NCc1ccccc1" showed composite z-score equal to 0.846

// data source = PubChem BioAssay
